# System: IRAK4 (human), Q9NWZ3 [A81V]
# Sequence (Q9NWZ3 whole entry, looked up, stated change not applied): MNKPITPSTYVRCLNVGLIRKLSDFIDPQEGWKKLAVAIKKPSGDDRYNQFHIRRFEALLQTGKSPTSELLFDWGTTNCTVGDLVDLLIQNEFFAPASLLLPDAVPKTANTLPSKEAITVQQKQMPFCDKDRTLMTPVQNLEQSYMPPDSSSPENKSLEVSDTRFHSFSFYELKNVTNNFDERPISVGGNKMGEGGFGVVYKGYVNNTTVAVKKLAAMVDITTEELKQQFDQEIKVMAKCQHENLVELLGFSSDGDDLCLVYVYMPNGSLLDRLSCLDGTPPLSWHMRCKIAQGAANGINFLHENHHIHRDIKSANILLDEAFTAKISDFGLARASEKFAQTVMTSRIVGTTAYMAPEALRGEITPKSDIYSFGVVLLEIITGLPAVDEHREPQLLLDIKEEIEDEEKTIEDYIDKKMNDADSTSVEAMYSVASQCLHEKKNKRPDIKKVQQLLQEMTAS
# Measurement notes: radiometric filter-binding kinase assay, Kinaseprofiler
# Test settings: compound 10.0 µM; ATP 200 µM
So I've got a bunch of compounds here, and I need their residual activity values.
Give bare numbers, in %.

Previously resolved entries follow.
[
  {
    "Given smiles": "COC(=O)[C@]1(O)C[C@@H]2O[C@@]1(C)n1c3ccccc3c3c4c(c5c6ccccc6n2c5c31)C(=O)NC4",
    "Endpoint value": 0
  },
  {
    "Given smiles": "CN[C@@H]1C[C@H]2O[C@@](C)([C@@H]1OC)n1c3ccccc3c3c4c(c5c6ccccc6n2c5c31)C(=O)NC4",
    "Endpoint value": 0
  },
  {
    "Given smiles": "O=C1c2ccccc2-c2n[nH]c3cccc1c23",
    "Endpoint value": 11
  }
]

Kindly consider the entry below.
Specify measured residual activity for O=C1Nc2ccccc2/C1=C1\Nc2ccccc2\C1=N/O .
6

Source: the kinase profiling compilation of Christmann-Franck et al. (2016)
